Test system: biomarker (antibody) in serum samples from patients with symptoms of tuberculosis
Format: binding, human
Details: serum sample 1 TB+
Marks after values point to notes of the source that are not given here.
// reported ELISA absorbance at 492 nm per item

{"columns": ["compound", "ELISA absorbance at 492 nm"],
 "data": [
  ["CCCCCCCCCCCCCCCCCCCCCCCC[C@@H](C(=O)OC[C@H]1O[C@H](OC)[C@@H](O)[C@@H]1O)[C@H](O)CCCCCCCCCCCCCCCCC[C@@H]1C[C@@H]1CCCCCCCCCCCCCCCC[C@@H](OC)[C@@H](C)CCCCCCCCCCCCCCCCCC [Antigen B]", "0.48*"],
  ["CCCCCCCCCCCCCCCCCCCCCC[C@@H](C(=O)OC[C@H]1O[C@H](OC)[C@@H](O)[C@@H]1O)[C@H](O)CCCCCCCCCCCCCCCCC[C@@H]1C[C@@H]1CCCCCCCCCCCCCCCC[C@@H](OC)[C@@H](C)CCCCCCCCCCCCCCCCCC [Antigen A]", "0.28*"],
  ["CCCCCCCCCCCCCCCCCCCCCC[C@@H](C(=O)OC[C@H]1O[C@H](OC)[C@@H](O)[C@@H]1O)[C@H](O)CCCCCCCCCCCCCCCCC[C@H]1C[C@H]1CCCCCCCCCCCCCCCC[C@@H](OC)[C@@H](C)CCCCCCCCCCCCCCCCCC [Antigen E]", "0.42*"],
  ["CCCCCCCCCCCCCCCCCCCCCC[C@@H](C(=O)OC[C@H]1O[C@H](OC)[C@@H](O)[C@@H]1O)[C@H](O)CCCCCCCCCCCCCCC[C@@H]1C[C@@H]1CCCCCCCCCCCCCCCCCCC(=O)C(C)CCCCCCCCCCCCCCCCCC (some centres unmarked) [Antigen C]", "0.33*"],
  ["CCCCCCCCCCCCCCCCCCCCCCCC[C@@H](C(=O)OC[C@H]1O[C@H](OC)[C@@H](O)[C@@H]1O)[C@H](O)CCCCCCCCCCC[C@H]1CC1CCCCCCCCCCCCCC[C@H]1C[C@H]1CCCCCCCCCCCCCCCCCCCC (some centres unmarked) [Antigen F]", "0.74*"]
]}

* * *

// reported ELISA absorbance at 492 nm per item
Test system: biomarker (antibody) in serum samples from patients with symptoms of tuberculosis
Format: binding, human
Conditions: serum sample 59 TB−
Marks after values point to notes of the source that are not given here.

{"columns": ["molecule", "assayed_target", "ELISA absorbance at 492 nm"],
 "data": [
  ["CCCCCCCCCCCCCCCCCCCCCC[C@@H](C(=O)OC[C@H]1O[C@H](OC)[C@@H](O)[C@@H]1O)[C@H](O)CCCCCCCCCCCCCCCCC[C@@H]1C[C@@H]1CCCCCCCCCCCCCCCC[C@@H](OC)[C@@H](C)CCCCCCCCCCCCCCCCCC [Antigen A]", "biomarker (antibody) in serum samples from patients with symptoms of tuberculosis", "0.33*"],
  ["CCCCCCCCCCCCCCCCCCCCCC[C@@H](C(=O)OC[C@H]1O[C@H](OC)[C@@H](O)[C@@H]1O)[C@H](O)CCCCCCCCCCCCCCCCC[C@H]1C[C@H]1CCCCCCCCCCCCCCCC[C@@H](OC)[C@@H](C)CCCCCCCCCCCCCCCCCC [Antigen E]", "biomarker (antibody) in serum samples from patients with symptoms of tuberculosis", 0.25],
  ["CCCCCCCCCCCCCCCCCCCCCC[C@@H](C(=O)OC[C@H]1O[C@H](OC)[C@@H](O)[C@@H]1O)[C@H](O)CCCCCCCCCCCCCCC[C@@H]1C[C@@H]1CCCCCCCCCCCCCCCCCCC(=O)C(C)CCCCCCCCCCCCCCCCCC (stereo partly drawn) [Antigen C]", "biomarker (antibody) in serum samples from patients with symptoms of tuberculosis", "0.65*"]
]}

* * *

Test system: biomarker (antibody) in serum samples from patients with symptoms of tuberculosis
Format: binding, human
Settings: serum sample 32 TB−
Marks after values point to notes of the source that are not given here.
// reported ELISA absorbance at 492 nm per item
endpoint_label: ELISA absorbance at 492 nm

{"columns": ["compound", "result"],
 "data": [
  ["CCCCCCCCCCCCCCCCCCCCCC[C@@H](C(=O)OC[C@H]1O[C@H](OC)[C@@H](O)[C@@H]1O)[C@H](O)CCCCCCCCCCCCCCCCC[C@H]1C[C@H]1CCCCCCCCCCCCCCCC[C@@H](OC)[C@@H](C)CCCCCCCCCCCCCCCCCC [Antigen E]", "0.57*"],
  ["CCCCCCCCCCCCCCCCCCCCCCCC[C@@H](C(=O)OC[C@H]1O[C@H](OC)[C@@H](O)[C@@H]1O)[C@H](O)CCCCCCCCCCCCCCCCC[C@@H]1C[C@@H]1CCCCCCCCCCCCCCCC[C@@H](OC)[C@@H](C)CCCCCCCCCCCCCCCCCC [Antigen B]", "0.68*"],
  ["CCCCCCCCCCCCCCCCCCCCCC[C@@H](C(=O)OC[C@H]1O[C@H](OC)[C@@H](O)[C@@H]1O)[C@H](O)CCCCCCCCCCCCCCCCC[C@@H]1C[C@@H]1CCCCCCCCCCCCCCCC[C@@H](OC)[C@@H](C)CCCCCCCCCCCCCCCCCC [Antigen A]", "0.34*"]
]}

* * *

System: biomarker (antibody) in serum samples from patients with symptoms of tuberculosis
Type: binding, human
Details: serum sample 36 TB−
// reported ELISA absorbance at 492 nm per item
endpoint_label: ELISA absorbance at 492 nm

{"columns": ["compound", "assayed_target", "result"],
 "data": [
  ["CCCCCCCCCCCCCCCCCCCCCC[C@@H](C(=O)OC[C@H]1O[C@H](OC)[C@@H](O)[C@@H]1O)[C@H](O)CCCCCCCCCCCCCCCCC[C@@H]1C[C@@H]1CCCCCCCCCCCCCCCC[C@@H](OC)[C@@H](C)CCCCCCCCCCCCCCCCCC [Antigen A]", "biomarker (antibody) in serum samples from patients with symptoms of tuberculosis", 0.11],
  ["CCCCCCCCCCCCCCCCCCCCCC[C@@H](C(=O)OC[C@H]1O[C@H](OC)[C@@H](O)[C@@H]1O)[C@H](O)CCCCCCCCCCCCCCCCC[C@H]1C[C@H]1CCCCCCCCCCCCCCCC[C@@H](OC)[C@@H](C)CCCCCCCCCCCCCCCCCC [Antigen E]", "biomarker (antibody) in serum samples from patients with symptoms of tuberculosis", 0.23],
  ["CCCCCCCCCCCCCCCCCCCCCCCC[C@@H](C(=O)OC[C@H]1O[C@H](OC)[C@@H](O)[C@@H]1O)[C@H](O)CCCCCCCCCCCCCCCCC[C@@H]1C[C@@H]1CCCCCCCCCCCCCCCC[C@@H](OC)[C@@H](C)CCCCCCCCCCCCCCCCCC [Antigen B]", "biomarker (antibody) in serum samples from patients with symptoms of tuberculosis", 0.28],
  ["CCCCCCCCCCCCCCCCCCCCCC[C@@H](C(=O)OC[C@H]1O[C@H](OC)[C@@H](O)[C@@H]1O)[C@H](O)CCCCCCCCCCCCCCC[C@@H]1C[C@@H]1CCCCCCCCCCCCCCCCCCC(=O)C(C)CCCCCCCCCCCCCCCCCC (some centres unmarked) [Antigen C]", "biomarker (antibody) in serum samples from patients with symptoms of tuberculosis", 0.25],
  ["CCCCCCCCCCCCCCCCCCCCCCCC[C@@H](C(=O)OC[C@H]1O[C@H](OC)[C@@H](O)[C@@H]1O)[C@H](O)CCCCCCCCCCC[C@H]1CC1CCCCCCCCCCCCCC[C@H]1C[C@H]1CCCCCCCCCCCCCCCCCCCC (some centres unmarked) [Antigen F]", "biomarker (antibody) in serum samples from patients with symptoms of tuberculosis", 0.28]
]}

* * *

Tested on: biomarker (antibody) in serum samples from patients with symptoms of tuberculosis
Format: binding, human
Conditions: serum sample 56 TB−
// reported ELISA absorbance at 492 nm per item

{"columns": ["molecule", "ELISA absorbance at 492 nm"],
 "data": [
  ["CCCCCCCCCCCCCCCCCCCCCCCC[C@@H](C(=O)OC[C@H]1O[C@H](OC)[C@@H](O)[C@@H]1O)[C@H](O)CCCCCCCCCCCCCCCCC[C@@H]1C[C@@H]1CCCCCCCCCCCCCCCC[C@@H](OC)[C@@H](C)CCCCCCCCCCCCCCCCCC [Antigen B]", 0.42],
  ["CCCCCCCCCCCCCCCCCCCCCC[C@@H](C(=O)OC[C@H]1O[C@H](OC)[C@@H](O)[C@@H]1O)[C@H](O)CCCCCCCCCCCCCCCCC[C@H]1C[C@H]1CCCCCCCCCCCCCCCC[C@@H](OC)[C@@H](C)CCCCCCCCCCCCCCCCCC [Antigen E]", 0.31]
]}

* * *

// reported ELISA absorbance at 492 nm per item
System: biomarker (antibody) in serum samples from patients with symptoms of tuberculosis
Assay type: binding, human
Conditions: serum sample 38 TB−
endpoint_label: ELISA absorbance at 492 nm

{"columns": ["compound", "result"],
 "data": [
  ["CCCCCCCCCCCCCCCCCCCCCCCC[C@@H](C(=O)OC[C@H]1O[C@H](OC)[C@@H](O)[C@@H]1O)[C@H](O)CCCCCCCCCCC[C@H]1CC1CCCCCCCCCCCCCC[C@H]1C[C@H]1CCCCCCCCCCCCCCCCCCCC (some centres unmarked) [Antigen F]", 0.52],
  ["CCCCCCCCCCCCCCCCCCCCCCCC[C@@H](C(=O)OC[C@H]1O[C@H](OC)[C@@H](O)[C@@H]1O)[C@H](O)CCCCCCCCCCCCCCCCC[C@@H]1C[C@@H]1CCCCCCCCCCCCCCCC[C@@H](OC)[C@@H](C)CCCCCCCCCCCCCCCCCC [Antigen B]", 0.44]
]}
